system: UACC-62 melanoma; experiment: NCI-60 one-dose screen, 48 h (100 = growth as untreated, 0 = no growth, -100 = all killed); details: 10 µM
Compounds without any hit were thinned out: in the full panel of roughly 83,000, 20% have a hit.
Consider the following molecules; for each one, report its growth.
Answers are plain numbers, in %.

A selection of reference data follows.
molecule	unit_abbreviation	growth
OCC1OC(n2cnc3c(NCc4ccco4)ncnc32)C(O)C1O (stereo not given)	%	32.5
CC(C)(C)OC(=O)CC(S(=O)(=O)c1ccccc1)S(=O)(=O)c1ccccc1	%	103
O=S(=O)(Oc1ccc(-c2ccc3sccc3c2)cc1)c1ccccc1	%	74.9
O=C(CCCCC(=O)Oc1c(Cl)cc(Cl)cc1[N+](=O)[O-])Oc1c(Cl)cc(Cl)cc1[N+](=O)[O-]	%	102

# evaluate next
Prompt: // growth lookup, key: C[C@@H](O)[C@H]1C(=O)N2C(C(=O)O)=C(SC3CN[C@H](C(=O)N(C)C)C3)[C@H](C)[C@H]12 (stereo not given in full)
Response: 99.4

* * *

Consider the following compounds; for each one, report its growth.
test system: ACHN renal; assay: NCI-60 one-dose screen, 48 h (100 = growth as untreated, 0 = no growth, -100 = all killed); details: 10 µM
The panel holds about 83,000 compounds, 20% with a hit somewhere; the sample as a whole holds those more often.
Give bare numbers, in %.

A selection of reference data follows.
compound	growth [%]
Clc1nc2ccc(Br)cc2cc1-c1nc2ccccc2[nH]1	2.34
COc1cccc(C2C(C#N)=C(N)Oc3cc(N)ccc32)c1 (stereo unspecified)	55.4
COc1ccc2nc3cc(Cl)ccc3c(NCCCNCCO)c2c1	-9.61
CC(=O)Nc1ccc(S(=O)(=O)c2ccnc3cc(Cl)ccc23)cc1	69.3
O=C(Nc1cc([N+](=O)[O-])c2[nH]c(=O)c3ccccc3c2c1)C(F)(F)F	58.6

Prompt: // growth lookup, key: CC(CN(C)C)Oc1ccc(OC(C)CN(C)C)c2c1C(=O)c1ccccc1C2=O (stereo unspecified)
Response: 28

* * *

Consider the following molecules; for each one, report its growth.
system: MALME-3M melanoma; assay: NCI-60 one-dose screen, 48 h (100 = growth as untreated, 0 = no growth, -100 = all killed); details: 10 µM
This is part of a sample that, as a whole, favours compounds with a hit. Of some 83,000 tested, about 20% had one in any assay.
Give bare numbers, in %.

A selection of reference data follows.
molecule	result_value
CCOc1ccccc1/C=N\N=C\c1ccccc1O	96.5
Nc1cc(Br)c(-c2nn3c(CCC(=O)c4nc5ccccc5[nH]4)nnc3s2)c(Br)c1	95.8
COc1cc2cc(Oc3ccc(NC(=O)c4cc(C(F)(F)F)cc(C(F)(F)F)c4)cc3)c(C)nc2cc1OC	73.7
COc1ccc(-c2cc(-c3ccc(Cl)cc3)nc(SCCCCCCC(=O)NO)n2)cc1OC	42.5
CN1C(C(=O)Nc2ccccn2)=C(O)c2sc(Cl)cc2S1(=O)=O	102

Batch request: growth for each of the following molecules.
1. CCOC(=O)c1cc(C(=O)c2ccc(F)cc2F)n2ccccc12
2. Nc1nc(-c2cccnc2)nc2c1sc(=S)n2-c1ccccc1
3. COc1cc(C2C(C#N)=C(N)Oc3cc(O)ccc32)cc(OC)c1OC (stereo not given)
4. Cc1nn(-c2ccc(-c3ccc(OC(F)(F)F)cc3)cc2)c2nc(Cc3ccccc3)nc(N)c12
5. CCN1CCN(CCC(=O)Nc2cccc(-n3cc(-c4ccncc4)c(-c4ccc(Cl)c(OC)c4)n3)c2)CC1
6. CCCCN(CCCC)C(=O)[C@H](CC)[C@@H]1CC[C@@H](C)[C@@H]([C@H](C)[C@@H](O)[C@@H](C)C(=O)[C@H](CC)C2O[C@]3(C=CC(=O)[C@]4(CC[C@@](C)([C@H]5CC[C@](O)(CC)[C@H](C)O5)O4)O3)[C@H](C)C[C@@H]2C)O1 (stereo not given in full)

Response:
[120, 112, 43.5, 83.8, -63.6, -5.97]

* * *

system: SR leukemia; test: NCI-60 one-dose screen, 48 h (100 = growth as untreated, 0 = no growth, -100 = all killed); conditions: 10 µM
The panel holds about 83,000 compounds, 20% with a hit somewhere; the sample as a whole holds those more often.
quantity_name: growth (%)
Numbers only, in %.

A selection of reference data follows.
molecule	result_value
Nc1ncnc2c1ncn2C1(CO)OCC(O)C(O)C1O (stereo not given)	109
CCOC(=O)c1cc(C(=O)c2cc(OC)cc(OC)c2)n2nc(C)ccc12	18.4
CCNCC(=O)Nc1ccc(C(=O)OCC)cc1	82.3

Batch request: growth for each of the following molecules.
1. CCN(CC)c1ccc(/C=C2\SC(=O)C(Nc3nnc(-c4cccnc4SCc4ccccc4)o3)C2=O)cc1 (stereo not given)
2. Cc1ccc(C)c(COc2cc(NC(=O)c3ccc4c(c3)OCO4)ccc2N(C)S(C)(=O)=O)c1

Response:
1: 11.8; 2: 13.2

* * *

system: M14 melanoma; assay: NCI-60 one-dose screen, 48 h; settings: 10 µM
This is part of a sample that, as a whole, favours compounds with a hit. Of some 83,000 tested, about 20% had one in any assay. Activity calls are given as the source filed them. The calls were made as follows: active = growth percent below 10; inactive = the rest.
// classify into yes for active, no for inactive

Prompt: Lab log entry: O=C(CCl)Oc1ccc(OC(=O)CCl)cc1 — outcome as called in the assay?
Response: no

Prompt: Lab log entry: CN(C)c1ncnc2c1nnn2C1OC(CO)C(O)C1O (stereo not drawn) — outcome as called in the assay?
Response: yes

Prompt: Lab log entry: O=C1c2c(c(=O)[nH]c3ccccc23)CCN1Cc1ccccc1 — outcome as called in the assay?
Response: no

Prompt: Lab log entry: COc1cc2c(Nc3ccc(-c4ccc(N)cc4)cc3)ncnc2c(OC)c1OC — outcome as called in the assay?
Response: no

Prompt: Lab log entry: O=C(N/N=C/c1c(Cl)cccc1Cl)c1ccccc1Nc1cccc(C(F)(F)F)c1 — outcome as called in the assay?
Response: no

Prompt: Lab log entry: C[C@]12CC[C@@H]3c4ccc(OS(=O)(=O)O)cc4CC[C@H]3[C@@H]1CC[C@@H]2NS(=O)(=O)c1ccc(-c2ccccc2)cc1 — outcome as called in the assay?
Response: no

Prompt: Lab log entry: O=C(NCCNC(=O)c1ccc(F)cc1)Nc1ccc(-n2cc(-c3ccncc3)c(-c3ccc(Cl)c(O)c3)n2)cc1 — outcome as called in the assay?
Response: yes

Prompt: Lab log entry: C/C(=N\O)c1ccc(NC(=O)CSc2nnc(-c3ccccc3)n2-c2ccccc2)cc1 — outcome as called in the assay?
Response: no

* * *

system: TK-10 renal; assay: NCI-60 one-dose screen, 48 h; settings: 10 µM
This is part of a sample that, as a whole, favours compounds with a hit. Of some 83,000 tested, about 20% had one in any assay. The source made the active and inactive calls. How the source made its calls: active means growth percent below 10; inactive means the rest.
// classify into 1 = active, 0 = inactive

Reference set, count: 5
compound	class
Cc1ccc(Cl)cc1NC(=O)CCl	0
CCOc1ccccc1/C=N\N=C\c1ccccc1O	0
CC(=O)Nc1ccc(S(=O)(=O)c2ccnc3cc(Cl)ccc23)cc1	0
COc1ccc(Nc2cnc3cc(NS(=O)(=O)c4ccc(C)cc4)ccc3n2)cc1	0
CN(C)CCCOc1ccc(NC2=C(Cl)C(=O)C(Nc3ccc(OCCCN(C)C)cc3)=C(Cl)C2=O)cc1	1

Prompt: Lab log entry: Cc1cn(-c2cc(F)cc(NC(=O)c3ccc(C)c(Nc4nccc(-c5cccnc5)n4)c3)c2)cn1 — outcome as called in the assay?
Response: 1

Prompt: Lab log entry: COC(=O)CC[C@@H](C)[C@H]1CC[C@H]2[C@@H]3CC[C@@H]4C[C@H](O)CC[C@]4(C)[C@H]3C[C@H](O)[C@]12C — outcome as called in the assay?
Response: 0

Prompt: Lab log entry: C/C=C/C1=CN2C(=O)c3cc(OC4OC(C)C(NC)C(C)(O)C4O)c(C)c(O)c3N=C[C@@H]2C1 (stereo not given in full) — outcome as called in the assay?
Response: 0

Prompt: Lab log entry: COc1ccc(-c2nn(-c3cccc(Cl)c3)cc2-c2c(C#N)c(=O)n3[nH]c(-c4ccccc4)nc3c2C#N)cc1 — outcome as called in the assay?
Response: 0

Prompt: Lab log entry: COc1ccc(Cl)cc1Nc1nc(C(F)(F)F)ccc1C(=O)N/N=C/c1cc(OC)c(OC)c(OC)c1 — outcome as called in the assay?
Response: 0

Prompt: Lab log entry: NC1=CC(=O)C(=O)c2cccnc21 — outcome as called in the assay?
Response: 0

Prompt: Lab log entry: O=C(CCl)Oc1ccc(OC(=O)CCl)cc1 — outcome as called in the assay?
Response: 0

Prompt: Lab log entry: CCOC(=O)C1=CSC2=NC3=C(CCC/C3=C\c3ccc(Cl)cc3)C(c3ccc(Cl)cc3)N12 (stereo not given) — outcome as called in the assay?
Response: 0

Prompt: Lab log entry: CCN(CC)CCOc1ccc2c(c1O)C(=O)c1ccccc1C2=O — outcome as called in the assay?
Response: 0

Prompt: Lab log entry: CCC(=O)OC1CCC2C3CCC(=O)OC3C(C)(CCC(=O)O)CC12C (stereo not given) — outcome as called in the assay?
Response: 0
